Each recorded value in this set is attributed to patent US20260007684A1.

The following compounds are shown together with reported pIC50 values.
Molecular target: UniProt Q96P20
Experiment: Scintillation Proximity (SPA) NLRP3 Assay: displacement of 3H-MCC950
Assay type: binding
Conditions: displacement of 3H-MCC950; read-out: SPA IC50
pIC50: −log10 of the molar value.

These solved cases illustrate the format of a correct answer.
| compound | pIC50 |
| --- | --- |
| C[C@H]1CCN(c2nnn[nH]2)C[C@@H](NC(=O)C2(c3ccc(C(F)(F)F)cc3O)CC2)C1 (single isomer, unassigned) [63D*] | > 6.00 |
| C[C@H]1C[C@H](NC(=O)C2(c3ccc(Cl)cc3)CC2)[C@@H]2CC[C@H]1N2c1nnn[nH]1 [80D*] | 4.00 to 4.30 |
| C[C@H]1CCN(c2nnn[nH]2)C[C@H](NC(=O)C2(c3ccc(Cl)cc3)CC2)C1 (single isomer, unassigned) [12C*] | < 4.00 |
| C[C@H]1CCN(c2nnn[nH]2)C[C@H](NC(=O)C2(c3ccc(C(F)(F)F)c(OC(F)F)c3)CC2)C1 (single isomer, unassigned) [54C*] | < 4.00 |
| C[C@@H]1CCN(c2nnn[nH]2)C[C@H](NC(=O)C2(c3ccc(C(F)(F)F)c(F)c3)CC2)C1 (single isomer, unassigned) [66A*] | > 6.00 |

Now for the compound whose pIC50 we want.
Give me measured pIC50, please, for this compound: C[C@@H]1CCN(c2nnn[nH]2)C[C@@H](NC(=O)C2(c3ccc(Cl)cc3Cl)CC2)C1 (single isomer, unassigned) [55B*] 4.30 to 5.00

* * *

Molecular target: human NLRP3 (Homo sapiens (Human))
Assay: Scintillation Proximity (SPA) NLRP3 Assay: displacement of 3H-MCC950
Format: binding
Conditions: displacement of 3H-MCC950; read-out: SPA IC50
pIC50: −log10 of the molar value.
quantity measured: pIC50

| compound | pIC50 |
| --- | --- |
| C[C@H]1CCN(c2nnn[nH]2)C[C@H](NC(=O)C2(c3ccc(C(F)(F)F)c(F)c3)CC2)C1 (single isomer, unassigned) [66C*] | < 4.00 |
| C[C@@H]1CCN(c2nnn[nH]2)C[C@@H](NC(=O)C2(c3ccc(Cl)nc3O)CC2)C1 (single isomer, unassigned) [100B*] | 4.30 to 5.00 |

Give me measured pIC50, please, for this compound: CC1(C)C[C@H](NC(=O)C2(c3ccc(Cl)cc3O)CC2)CN(c2nnn[nH]2)C1 (single isomer, unassigned) [42B*] 4.30 to 5.00

* * *

Biological target: human NLRP3 (Homo sapiens (Human), UniProt Q96P20)
Sequence (Q96P20 whole entry): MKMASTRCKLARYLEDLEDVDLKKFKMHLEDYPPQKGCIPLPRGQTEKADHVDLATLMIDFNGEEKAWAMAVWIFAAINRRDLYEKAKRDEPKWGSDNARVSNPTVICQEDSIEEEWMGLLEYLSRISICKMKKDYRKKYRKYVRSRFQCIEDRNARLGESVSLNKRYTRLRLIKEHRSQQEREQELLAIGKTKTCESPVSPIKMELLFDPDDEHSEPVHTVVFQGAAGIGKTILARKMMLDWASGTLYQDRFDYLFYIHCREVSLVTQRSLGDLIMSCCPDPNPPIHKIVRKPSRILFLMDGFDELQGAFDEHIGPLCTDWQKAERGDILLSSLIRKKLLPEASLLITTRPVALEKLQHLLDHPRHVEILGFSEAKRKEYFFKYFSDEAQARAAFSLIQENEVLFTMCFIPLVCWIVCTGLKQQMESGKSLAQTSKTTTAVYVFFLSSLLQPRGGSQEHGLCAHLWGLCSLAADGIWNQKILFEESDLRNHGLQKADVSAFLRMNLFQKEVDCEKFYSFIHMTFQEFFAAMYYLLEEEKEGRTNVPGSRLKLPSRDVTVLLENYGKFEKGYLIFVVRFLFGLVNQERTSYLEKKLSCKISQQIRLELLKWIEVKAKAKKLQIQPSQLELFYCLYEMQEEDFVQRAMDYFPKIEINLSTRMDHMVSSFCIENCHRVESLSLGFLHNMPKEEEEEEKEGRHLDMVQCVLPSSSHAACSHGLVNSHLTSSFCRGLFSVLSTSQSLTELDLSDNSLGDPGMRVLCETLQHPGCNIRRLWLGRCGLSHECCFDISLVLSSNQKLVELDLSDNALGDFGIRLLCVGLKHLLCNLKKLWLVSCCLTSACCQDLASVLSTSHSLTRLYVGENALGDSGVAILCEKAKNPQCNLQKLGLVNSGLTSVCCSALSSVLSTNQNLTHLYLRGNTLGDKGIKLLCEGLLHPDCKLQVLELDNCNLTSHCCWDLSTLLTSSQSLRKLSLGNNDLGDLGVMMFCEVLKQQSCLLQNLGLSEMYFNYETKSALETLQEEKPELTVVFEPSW
Assay: Human PBMC NLRP3 Assay (LPS priming, ATP stimulation, cytokine measurement)
Format: cell-based
Details: human PBMC, LPS priming, ATP stimulation; read-out: PBMC IC50
pIC50: −log10 of the molar value.
quantity measured: pIC50

| compound | pIC50 |
| --- | --- |
| C[C@H]1CC[C@@H](NC(=O)C2(c3ccc(Cl)cc3O)CC2)CN(c2nnn[nH]2)C1 (single isomer, unassigned) [90A*] | > 8.00 |
| C[C@@H]1CCN(c2nnn[nH]2)C[C@@H](NC(=O)C2(c3ccc(C(F)F)cc3O)CC2)C1 (single isomer, unassigned) [30B*] | 7.00 to 8.00 |
| C[C@@H]1CCN(c2nnn[nH]2)C[C@H](NC(=O)C2(c3ccc(C(F)(F)F)cc3F)CC2)C1 (single isomer, unassigned) [68A*] | > 8.00 |
| C[C@H]1CC[C@H](NC(=O)C2(c3ccc(C(F)(F)F)cc3O)CC2)CN(c2nnn[nH]2)C1 [89B*] | 7.00 to 8.00 |
| O=C(N[C@@H]1CCCCCN(c2nnn[nH]2)C1)C1(c2ccc(Cl)cc2)CC1 (single isomer, unassigned) [14A*] | 7.00 to 8.00 |
| C[C@@H]1CCN(c2nnn[nH]2)C[C@@H](NC(=O)C2(c3ccc(Cl)cc3O)CC2)C1 (single isomer, unassigned) [60B*] | 7.00 to 8.00 |

Now for the compound whose pIC50 we want.
Give me measured pIC50, please, for this compound: C[C@H]1C[C@@H](NC(=O)C2(c3ccc(C4CC4)cc3O)CC2)CN(c2nnn[nH]2)C1 [Compound 23A] 7.00 to 8.00

* * *

Biological target: human NLRP3 (Homo sapiens (Human), UniProt Q96P20)
Experiment: Human Whole Blood (hWB) NLRP3 Assay (LPS/ATP, IL-1β)
Assay type: cell-based
Conditions: human whole blood, LPS/ATP, IL-1β; read-out: hWB IC50
quantity measured: IC50

These solved cases illustrate the format of a correct answer.
| molecule | IC50 |
| --- | --- |
| C[C@@H]1CCN(c2nnn[nH]2)C[C@H](NC(=O)C2(c3ccc(OC(F)(F)F)cc3)CC2)C1 (single isomer, unassigned) [57A*] | 1000 to 2000 nM |
| C[C@H]1CC[C@H](NC(=O)C2(c3ccc(C(F)(F)F)cc3O)CC2)CN(c2nnn[nH]2)C1 [89B*] | > 3000 nM |
| C[C@@H]1C[C@H](NC(=O)C2(c3ccc(OC(F)F)cc3O)CC2)[C@H]2CC[C@@H]1N2c1nnn[nH]1 [43B*] | > 3000 nM |

Give me measured IC50, please, for this molecule: O=C(N[C@H]1CN(c2nnn[nH]2)CCC(F)(F)C1)C1(c2ccc(Cl)cc2)CC1 (single isomer, unassigned) [53A*] < 1000 nM

Give me measured IC50, please, for this molecule: C[C@@H]1CCN(c2nnn[nH]2)C[C@H](NC(=O)C2(c3ccc(Br)cc3)CC2)C1 (single isomer, unassigned) [59A*] < 1000 nM

Give me measured IC50, please, for this molecule: Cc1c(Cl)ccc(C2(C(=O)N[C@@H]3C[C@H](C)CCN(c4nnn[nH]4)C3)CC2)c1O (single isomer, unassigned) [21A*] < 1000 nM

Give me measured IC50, please, for this molecule: C[C@@H]1CCN(c2nnn[nH]2)C[C@@H](NC(=O)C2(c3ccc(C(F)(F)F)cc3O)CC2)C1 (single isomer, unassigned) [63B*] < 1000 nM

* * *

Target: human NLRP3 (Homo sapiens (Human), UniProt Q96P20)
Assay: Scintillation Proximity (SPA) NLRP3 Assay: displacement of 3H-MCC950
Format: binding
Conditions: displacement of 3H-MCC950; read-out: SPA IC50
quantity measured: IC50

These solved cases illustrate the format of a correct answer.
| molecule | IC50 |
| --- | --- |
| C[C@H]1C[C@H](NC(=O)C2(c3ccc(OC(F)F)cc3)CC2)[C@H]2CC[C@@H]1N2c1nnn[nH]1 (single isomer, unassigned) [35F*] | 50 to 100 µM |
| C[C@@H]1CCN(c2nnn[nH]2)C[C@H](NC(=O)C2(c3ccc(Cl)cc3Cl)CC2)C1 (single isomer, unassigned) [55A*] | < 1 µM |
| C[C@@H]1C[C@H](NC(=O)C2(c3ccc(C(F)(F)F)cc3)CC2)[C@H]2CC[C@@H]1N2c1nnn[nH]1 [79B*] | 10 to 50 µM |
| Cc1ccc(C2(C(=O)N[C@@H]3C[C@H](C)CCN(c4nnn[nH]4)C3)CC2)cc1 (single isomer, unassigned) [71A*] | < 1 µM |
| C[C@@H]1C[C@H](NC(=O)C2(c3ccc(SC(F)F)cc3)CC2)[C@H]2CC[C@@H]1N2c1nnn[nH]1 [85B*] | 10 to 50 µM |

Give me measured IC50, please, for this molecule: Cc1ccc(C2(C(=O)N[C@@H]3C[C@H](C)[C@H]4CC[C@@H]3N4c3nnn[nH]3)CC2)cc1 [87C*] > 100 µM

Give me measured IC50, please, for this molecule: C[C@@H]1CC[C@H](NC(=O)C2(c3ccc(Cl)cc3)CC2)CN(c2nnn[nH]2)C1 (single isomer, unassigned) [36D*] > 100 µM

* * *

Target: human NLRP3 (Homo sapiens (Human), UniProt Q96P20)
Test: Scintillation Proximity (SPA) NLRP3 Assay: displacement of 3H-MCC950
Format: binding
Settings: displacement of 3H-MCC950; read-out: SPA IC50
quantity measured: IC50

These solved cases illustrate the format of a correct answer.
| molecule | system | IC50 |
| --- | --- | --- |
| O=C(N[C@@H]1C[C@@H](F)CN(c2nnn[nH]2)C1)C1(c2ccc(Cl)cc2)CC1 [Compound 44C] | human NLRP3 (Homo sapiens (Human), UniProt Q96P20) | 10 to 50 µM |
| O=C(NC1CC(C2CC2)CN(c2nnn[nH]2)C1)C1(c2ccc(Cl)cc2)CC1 (single isomer, unassigned) [Rac-13A*/D*] | human NLRP3 (Homo sapiens (Human), UniProt Q96P20) | 1 to 10 µM |
| C[C@@H]1CCN(c2nnn[nH]2)C[C@@H](NC(=O)C2(c3cnc(Cl)cc3O)CC2)C1 (single isomer, unassigned) [99B*] | human NLRP3 (Homo sapiens (Human), UniProt Q96P20) | 1 to 10 µM |

Give me measured IC50, please, for this molecule: C[C@@H]1CCN(c2nnn[nH]2)C[C@H](NC(=O)C2(c3ccc(Cl)cc3O)CC2)C1 (single isomer, unassigned) [60A*] < 1 µM

Give me measured IC50, please, for this molecule: Cc1ccc(C2(C(=O)N[C@H]3C[C@@H](C)CCN(c4nnn[nH]4)C3)CC2)c(O)c1F (single isomer, unassigned) [74D*] 1 to 10 µM

Give me measured IC50, please, for this molecule: C[C@H]1CCN(c2nnn[nH]2)C[C@@H](NC(=O)C2(c3ccc(OC(F)(F)F)cc3O)CC2)C1 (single isomer, unassigned) [62D*] 1 to 10 µM

Give me measured IC50, please, for this molecule: C[C@@H]1CCN(c2nnn[nH]2)C[C@@H](NC(=O)C2(c3ccc(C(F)(F)F)c(F)c3)CC2)C1 (single isomer, unassigned) [66B*] 1 to 10 µM

Give me measured IC50, please, for this molecule: C[C@@H]1CCN(c2nnn[nH]2)C[C@@H](NC(=O)C2(c3ccc(C4CC4)c(F)c3O)CC2)C1 (single isomer, unassigned) [32B*] 1 to 10 µM

Give me measured IC50, please, for this molecule: C[C@@H]1CC[C@@H](NC(=O)C2(c3ccc(C(F)(F)F)cc3O)CC2)CN(c2nnn[nH]2)C1 [89C*] 1 to 10 µM

Give me measured IC50, please, for this molecule: C[C@H]1C[C@H](NC(=O)C2(c3ccc(C4CC4)c(F)c3O)CC2)[C@@H]2CC[C@H]1N2c1nnn[nH]1 [83D*] > 100 µM
